Assay: APR_HepG2_CellLoss_72hr: Apredica 72-hour HepG2 Assay for Cell Loss (AID 2282915)
Settings: high-content imaging
Description: APR_HepG2_72hr is a cell-based, multiplexed-readout assay that uses HepG2, a human liver cell line, with measurements taken at 72 hours after chemical dosing in a 384-well plate.APR_HepG2_CellLoss_72hr is one of 10 assay component(s) measured or calculated from the APR_HepG2_72hr assay. […] This assay endpoint, APR_HepG2_CellLoss_72hr, was analyzed with bidirectional fitting relative to DMSO as the negative control and baseline of activity. […]
The source made the active and inactive calls. Rule for the calls: active = hit-call score of the fitted dose curve at least 0.9, where 1 is the maximum; inactive = score below 0.9.
Outcomes: active, inactive

smiles_data | assigned_class
Cc1ccc(C)c(C)c1 | inactive
CCCCCCC(=O)OCC | inactive
CC(C)(C)c1cc(O)c(C(C)(C)C)cc1O | active
Cc1c(C(=O)O)c(O)cc2c1C(=O)c1c(O)c([C@@H]3O[C@H](CO)[C@@H](O)[C@H](O)[C@H]3O)c(O)c(O)c1C2=O | inactive
CCOc1ccc2c(c1)C(C)=CC(C)(C)N2 | active
Cc1ccccc1Cl | inactive

---

Read-out: Lipase C (LIPC), LIPC (gene 3990)
Test: LTEA_HepaRG_LIPC: Life Technologies and Expression Analysis (LTEA) Assay for Lipase C (LIPC) using HepaRG (AID 2283514)
Conditions: mRNA level, 48 h; actives raise or lower the signal
Activity calls are given as the source filed them. Rule for the calls: active = hit-call score of the fitted dose curve at least 0.9, where 1 is the maximum; inactive = score below 0.9.
Outcomes: active, inactive

compound | assigned_class
Nc1ccc2c(c1)C(=O)c1ccccc1C2=O | active
Cc1cccc([N+](=O)[O-])c1C | inactive
Nc1ccccc1N | active
Cc1ccc(C)c(O)c1C | inactive
Cc1ccc2ncccc2c1 | inactive
O=C(N[C@@H](Cc1ccccc1)[C@@H](O)C(=O)N1C[C@@H](O)[C@@H](O)C1)c1cc2cc(Cl)ccc2[nH]1 | inactive
Cc1ccccc1Cl | inactive
O=[N+]([O-])C(CO)(CO)CO | inactive
C1CCC(SSC2CCCCC2)CC1 | inactive
CCCCCCOCCO | inactive
COc1cc(S(=O)(=O)O)c(C)cc1N=Nc1c(O)ccc2cc(S(=O)(=O)O)ccc12 | inactive
COc1cc(C=O)ccc1O | inactive
NCC1(Cc2noc(=O)[nH]2)CCCCC1 | inactive
CC(=O)C(C)=CC1C(C)=CCCC1(C)C (stereo not drawn) | inactive
CC(=O)Oc1ccccc1C(=O)O | inactive
CN1CCN(Cc2cc(-c3ccc4[nH]c(=O)oc4c3)co2)[C@@H](c2ccc(F)cc2)C1 | inactive
CCCCCCCCCCCCCCCC | inactive
NC(=O)Cn1c(=O)cc(CCN2CCN(c3nccc4sccc34)CC2)c2ccc(F)cc21 | active

---

Biological target: Cellular tumor antigen p53 (Homo sapiens) (UniProt P04637)
Sequence (P04637 whole entry, looked up): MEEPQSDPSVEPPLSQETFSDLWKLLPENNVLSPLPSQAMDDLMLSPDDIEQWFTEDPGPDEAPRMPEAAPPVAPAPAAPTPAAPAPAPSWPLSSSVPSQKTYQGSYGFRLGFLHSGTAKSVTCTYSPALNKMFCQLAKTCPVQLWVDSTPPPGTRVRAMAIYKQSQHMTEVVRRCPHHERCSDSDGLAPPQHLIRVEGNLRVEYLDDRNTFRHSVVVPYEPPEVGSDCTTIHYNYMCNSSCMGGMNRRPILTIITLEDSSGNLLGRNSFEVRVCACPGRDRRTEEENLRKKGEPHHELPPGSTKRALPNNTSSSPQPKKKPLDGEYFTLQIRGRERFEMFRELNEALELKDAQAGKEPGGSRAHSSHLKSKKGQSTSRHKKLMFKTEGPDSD
Experiment: TOX21_p53_BLA_p2_ratio: Tox21 HCT-116 p53 Agonism Beta-lactamase Assay, Ratio, Phase 2 (AID 2283592)
Method: TOX21_p53_BLA_p2 is a cell-based, single-readout assay that uses HCT116, a human intestinal cell line, […] in a 1536-well plate.TOX21_p53_BLA_p2_ratio is an assay readout measuring reporter gene via receptor activity and designed using inducible reporter (beta lactamase induction) detected with GAL4 b-lactamase reporter gene. […] This assay endpoint, TOX21_p53_BLA_p2_ratio, was analyzed in the positive analysis fitting direction relative to DMSO as the negative control and baseline of activity. […]
Results filed as inconclusive are left out. Active and inactive are the calls of the source. Rule for the calls: active = hit-call score of the fitted dose curve at least 0.9, where 1 is the maximum; inconclusive = response in the unintended direction; inactive = score below 0.9.
Labels: active, inactive

compound | assigned_class
Cc1nc(-c2ccc3c(c2)CCN(CCC2CCC(NC(=O)/C=C/c4ccc(F)cc4)CC2)CC3)no1 (configuration not stated) | inactive
CC(C)(C)c1cc(O)c(C(C)(C)C)cc1O | active
COc1cc(-c2nc(NC(=O)c3cc4cc(C)cc(C)c4n3CC(=O)O)sc2CCC2CCCCC2)c(OC)cc1Cl | active
CC(=O)Oc1ccccc1C(=O)O | inactive
CN[C@H]1CC[C@@H](c2ccc(Cl)c(Cl)c2)c2ccc(S(N)(=O)=O)cc21 | active
NCCO | inactive
CCCCCCCCCCO | inactive
CN1CCCC1=O | inactive
Cc1ccc(N(C)C)cc1 | inactive
Cc1ccccc1Cl | inactive
CCOC(=O)C(C)(C)Oc1ccc(Cl)cc1 | inactive
Cc1oc(-c2ccccc2)nc1CCOc1cccc2c1ccn2CCC(=O)O | active

---

Test: APR_HepG2_P-H2AX_24hr: Apredica 24-hour HepG2 Assay for H2AX Phosphorylation (AID 2282920)
Settings: high-content imaging, actives raise or lower the signal
Active and inactive are the calls of the source. Rule for the calls: active = hit-call score of the fitted dose curve at least 0.9, where 1 is the maximum; inactive = score below 0.9.
Outcome codes: label 1 = active, label 0 = inactive

compound | assigned_class
O=C(O)CCCCC(=O)O | label 0
CCCCN(CCCC)CCCC | label 0
COc1cccc2c1C(=O)c1c(O)c3c(c(O)c1C2=O)C[C@@](O)(C(=O)CO)C[C@@H]3O[C@H]1C[C@H](N)[C@H](O)[C@H](C)O1 | label 1
CC1(C)CC(N=C=O)CC(C)(CN=C=O)C1 (stereo not given) | label 1
CCCCCCCC=O | label 0
CCCCCCOCCO | label 0
CC(CO)OC(C)CO (stereo not given) (tested in a mixture with another compound) | label 0
COc1ccc(C)cc1N | label 0
O=C(O)Cc1ccccc1Nc1c(Cl)cccc1Cl | label 0
CNCc1cc(F)ccc1Oc1ccc(Cl)c(Cl)c1 | label 1
c1cc(-c2ccncc2)ccn1 | label 0
CCc1c(C(=O)NN2CCCCC2)nn(-c2ccc(Cl)cc2Cl)c1-c1ccc(Br)cc1 | label 1
CCCCCCCCCCO | label 0
COc1cc(-c2nc(NC(=O)c3cc4cc(C)cc(C)c4n3CC(=O)O)sc2CCC2CCCCC2)c(OC)cc1Cl | label 1
CC(=O)Oc1ccccc1C(=O)O | label 0

---

Molecular target: guinea pig Sigma Receptor, Non-selective Binding, SIGMAR1 (gene 100135589)
Test: NVS_OR_gSIGMA_NonSelective: NovaScreen (NVS) Nuclear Receptor Binding Assay for guinea pig Sigma Receptor, Non-selective Binding (AID 2283367)
Method: NVS_OR_gSIGMA_NonSelective is a biochemical, single-readout assay that uses extracted gene-proteins from Guinea pig brain membranes in a tissue-based cell-free assay. Measurements were taken 1 hour after chemical dosing in a 48-well plate.NVS_OR_gSIGMA_NonSelective is one of one assay component(s) measured or calculated from the NVS_OR_gSIGMA_NonSelective assay. […] Furthermore, this assay endpoint can be referred to as a primary readout, because the performed assay has only produced 1 assay endpoint. […]
Calls of active or inactive are those of the source. Rule for the calls: active = hit-call score of the fitted dose curve at least 0.9, where 1 is the maximum; inconclusive = response in the unintended direction; inactive = score below 0.9.
Overview of reported AC50 across a group of molecules:

smiles_data | AC50
Cc1oc(-c2ccccc2)nc1CCOc1cccc2c1ccn2CCC(=O)O | 11 µM (active)
FC(F)(F)C(F)(F)C(F)(F)C(F)(F)C(F)(F)C(F)(F)CCI | 3.3 µM (active)
CN1CCN(Cc2cc(-c3ccc4[nH]c(=O)oc4c3)co2)[C@@H](c2ccc(F)cc2)C1 | 5.66 µM (active)
CC(C)(C)c1cc(O)c(C(C)(C)C)cc1O | 5.75 µM (active)

---

Experiment: ATG_Oct_MLP_CIS: Attagene CIS-FACTORIAL HepG2 Assay for human Octamer-Binding Transcription Factor (Oct) (AID 2282993)
Settings: HepG2 Attagene cis-factorial Oct reporter, mRNA; actives raise or lower the signal
Activity calls are given as the source filed them. How the source made its calls: active means hit-call score of the fitted dose curve at least 0.9, where 1 is the maximum; inactive means score below 0.9.
Possible outcomes: y for active, n for inactive

molecule | assigned_class
Nc1ccc2c(c1)C(=O)c1ccccc1C2=O | n
CCOC(=O)C(C)(C)Oc1ccc(Cl)cc1 | n
Nc1ccc(S(=O)(=O)c2ccc(N)cc2)cc1 | n
CC(=O)C(C)=CC1C(C)=CCCC1(C)C (stereo not drawn) | n
CCCCc1ccc2c(n1)[C@@H](c1ccc(OC)cc1C[C@H](C)C(=O)O)[C@H](C(=O)O)[C@H]2c1ccc2c(c1)OCO2 | n
CCc1c(C(=O)NN2CCCCC2)nn(-c2ccc(Cl)cc2Cl)c1-c1ccc(Br)cc1 | n
Cc1nc(C)nc(N2C[C@@H](C)N(c3ccnc([C@@H](C)O)n3)[C@@H](C)C2)n1 | n
CC(C)(C)c1cc(O)c(C(C)(C)C)cc1O | y
CCCCCCCC=O | n
CC(=O)OCCOCCOCCOC(C)=O | n
CCNc1cccc(C)c1 | n
CCOc1ccc2c(c1)C(C)=CC(C)(C)N2 | y
O=[N+]([O-])C(CO)(CO)CO | n

---

Read-out: Macrophage colony-stimulating factor (MCSF), CSF1 (gene 1435)
Test: BSK_CASM3C_MCSF: BioMAP Diversity Plus: CASM3C Assay for Macrophage colony-stimulating factor (MCSF) Biomarker Activity (AID 2283044);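 note: M-CSF protein amount quantified by ELISA after 24 h exposure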
Settings: primary human coronary artery smooth muscle cells; actives raise or lower the signal
Activity calls are given as the source filed them. The calls were made as follows: active = hit-call score of the fitted dose curve at least 0.9, where 1 is the maximum; inactive = score below 0.9.
Outcomes: 1 for active, 0 for inactive

compound | assigned_class
Cc1ccc(C)c(O)c1C | 0
Cc1ccc(Cl)cc1 | 0
Cc1cc(NC(=O)C(=O)O)cc(C)c1Oc1ccc(O)c2c1CCC2 | 0
CC(=O)Oc1ccccc1C(=O)O | 0
Cc1nc(-c2ccc3c(c2)CCN(CCC2CCC(NC(=O)/C=C/c4ccc(F)cc4)CC2)CC3)no1 (stereo not given) | 0
CCCCC(CC)COC(=O)CC(C(=O)OCC(CC)CCCC)S(=O)(=O)O (stereo not given) | 0
CC(C)(C)c1cc(O)c(C(C)(C)C)cc1O | 0
NCC1(Cc2noc(=O)[nH]2)CCCCC1 | 0
Cc1ccc(C)c(C)c1 | 0
O=c1[nH]cc(F)c(=O)[nH]1 | 0
Oc1ccc2c(c1)OC[C@@H](N1CCC(O)(c3ccc(F)cc3)CC1)[C@H]2O | 0
C[C@]12C=CC(=O)C=C1CC[C@@H]1[C@@H]2C(=O)C[C@@]2(C)[C@H]1CC[C@]2(O)C(=O)CO | 1
Cc1ccccc1Cl | 0
O=C(OCCCCCOC(=O)c1ccccc1)c1ccccc1 | 0
CN[C@H]1CC[C@@H](c2ccc(Cl)c(Cl)c2)c2ccc(S(N)(=O)=O)cc21 | 1
